- experimental-system: Adenosine receptor A1 (Homo sapiens)
- Sequence (P30542 whole entry): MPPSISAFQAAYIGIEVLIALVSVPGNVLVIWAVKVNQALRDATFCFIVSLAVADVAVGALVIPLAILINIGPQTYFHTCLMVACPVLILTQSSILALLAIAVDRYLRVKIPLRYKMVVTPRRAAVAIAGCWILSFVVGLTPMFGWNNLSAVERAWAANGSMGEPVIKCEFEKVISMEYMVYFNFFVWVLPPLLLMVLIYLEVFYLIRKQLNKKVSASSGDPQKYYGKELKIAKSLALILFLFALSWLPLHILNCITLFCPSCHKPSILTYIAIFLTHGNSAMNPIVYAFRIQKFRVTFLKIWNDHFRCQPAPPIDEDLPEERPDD
- measurement-notes: Displacement of [3H]R-PIA from human adenosine A1 receptor expressed in CHO cells at 1 uM
- Format: cell-based
reported-property: inhibition (%)
Give your result in % as a bare value.

Some solved cases for reference:
[[record]]
smiles_record = "Cc1ccc(CNC(=O)[C@H]2S[C@@H](n3cnc4c(NCc5cccc(I)c5)ncnc43)[C@H](O)[C@@H]2O)cc1"
experimental_system = "Adenosine receptor A1 (Homo sapiens)"
reported_property = "inhibition"
reading = 15

[[record]]
smiles_record = "CNc1ncnc2c1ncn2[C@@H]1S[C@H](C(=O)NCc2cccc(I)c2)[C@@H](O)[C@H]1O"
experimental_system = "Adenosine receptor A1 (Homo sapiens)"
reported_property = "inhibition"
reading = 24

[[record]]
smiles_record = "O=C(NCc1cccc(Cl)c1)[C@H]1S[C@@H](n2cnc3c(NCc4cccc(I)c4)ncnc32)[C@H](O)[C@@H]1O"
experimental_system = "Adenosine receptor A1 (Homo sapiens)"
reported_property = "inhibition"
reading = 25


// moving on: another record for inhibition
Ask: I am curious: what inhibition value has been reported for `CCOc1ccccc1CNC(=O)[C@H]1S[C@@H](n2cnc3c(NCc4cccc(I)c4)ncnc32)[C@H](O)[C@@H]1O` ?
Reply: 12

---

- experimental-system: Adenosine receptor A1 (Homo sapiens)
reported-property: Ki (nM)
Give your result in nM as a bare value.

Ask: Observed Ki on Adenosine receptor A1 (Homo sapiens) for `CNC(=O)[C@H]1S[C@@H](n2cnc3c(NCc4cccc(I)c4)ncnc32)[C@H](O)[C@@H]1O` , please.
Reply: 20.2

---

- experimental-system: Adenosine receptor A1 (Homo sapiens)
- measurement-notes: Displacement of [3H]R-PIA from human adenosine A1 receptor expressed in CHO cells at 1 uM
- Assay type: cell-based
reported-property: inhibition (%)
Give your result in % as a bare value.

[[record]]
smiles_record = "COc1ccccc1CNC(=O)[C@H]1S[C@@H](n2cnc3c(NCc4cccc(I)c4)ncnc32)[C@H](O)[C@@H]1O"
reading = 34

[[record]]
smiles_record = "O=C(NCc1cccc2ccccc12)[C@H]1S[C@@H](n2cnc3c(NCc4cccc(I)c4)ncnc32)[C@H](O)[C@@H]1O"
reading = 20

[[record]]
smiles_record = "O=C(NCc1cccc(F)c1)[C@H]1S[C@@H](n2cnc3c(NCc4cccc(I)c4)ncnc32)[C@H](O)[C@@H]1O"
reading = 25

[[record]]
smiles_record = "Cc1ccccc1CNC(=O)[C@H]1S[C@@H](n2cnc3c(NCc4cccc(I)c4)ncnc32)[C@H](O)[C@@H]1O"
reading = 18

[[record]]
smiles_record = "O=C(NCCc1ccccc1)[C@H]1S[C@@H](n2cnc3c(NCc4cccc(I)c4)ncnc32)[C@H](O)[C@@H]1O"
reading = 20


Ask: Observed inhibition on Adenosine receptor A1 (Homo sapiens) for `O=C(NC(c1ccccc1)c1ccccc1)[C@H]1S[C@@H](n2cnc3c(NCc4cccc(I)c4)ncnc32)[C@H](O)[C@@H]1O` , please.
Reply: 17

Ask: Observed inhibition on Adenosine receptor A1 (Homo sapiens) for `O=C(NC1CCCCC1)[C@H]1S[C@@H](n2cnc3c(NCc4cccc(I)c4)ncnc32)[C@H](O)[C@@H]1O` , please.
Reply: 28

---

# Ki measurements, system: Adenosine receptor A3 (Homo sapiens)
# Sequence (P0DMS8 whole entry): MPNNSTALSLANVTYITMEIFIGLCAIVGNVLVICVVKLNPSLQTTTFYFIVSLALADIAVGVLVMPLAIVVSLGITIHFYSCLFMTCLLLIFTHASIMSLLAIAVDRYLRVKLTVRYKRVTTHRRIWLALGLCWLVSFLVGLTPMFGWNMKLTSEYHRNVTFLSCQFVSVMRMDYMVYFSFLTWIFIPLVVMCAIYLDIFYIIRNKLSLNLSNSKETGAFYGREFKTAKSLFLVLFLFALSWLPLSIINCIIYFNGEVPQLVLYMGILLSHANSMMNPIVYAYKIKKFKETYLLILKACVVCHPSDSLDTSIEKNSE
Give your result in nM as a bare value.

[[record]]
smiles_record = "O=C(NC1CC1)[C@H]1S[C@@H](n2cnc3c(NCc4cccc(I)c4)ncnc32)[C@H](O)[C@@H]1O"
reported_property = "Ki"
unit_abbreviation = "nM"
reading = 3.03

[[record]]
smiles_record = "O=C(NCc1cccc(Cl)c1)[C@H]1S[C@@H](n2cnc3c(NCc4cccc(I)c4)ncnc32)[C@H](O)[C@@H]1O"
reported_property = "Ki"
unit_abbreviation = "nM"
reading = 144

[[record]]
smiles_record = "Cc1cccc(CNC(=O)[C@H]2S[C@@H](n3cnc4c(NCc5cccc(I)c5)ncnc43)[C@H](O)[C@@H]2O)c1"
reported_property = "Ki"
unit_abbreviation = "nM"
reading = 94.9

[[record]]
smiles_record = "CNC(=O)[C@H]1S[C@@H](n2cnc3c(NC)ncnc32)[C@H](O)[C@@H]1O"
reported_property = "Ki"
unit_abbreviation = "nM"
reading = 1.19

[[record]]
smiles_record = "CNc1ncnc2c1ncn2[C@@H]1S[C@H](C(=O)NC2CCCC2)[C@@H](O)[C@H]1O"
reported_property = "Ki"
unit_abbreviation = "nM"
reading = 0.97


Ask: Observed Ki on Adenosine receptor A3 (Homo sapiens) for `CNc1ncnc2c1ncn2[C@@H]1S[C@H](C(=O)NC2CC2)[C@@H](O)[C@H]1O` , please.
Reply: 2.16

Ask: Observed Ki on Adenosine receptor A3 (Homo sapiens) for `CCNC(=O)[C@H]1S[C@@H](n2cnc3c(NC)ncnc32)[C@H](O)[C@@H]1O` , please.
Reply: 0.97

Ask: Observed Ki on Adenosine receptor A3 (Homo sapiens) for `COc1ccccc1CNC(=O)[C@H]1S[C@@H](n2cnc3c(NCc4cccc(I)c4)ncnc32)[C@H](O)[C@@H]1O` , please.
Reply: 97

Ask: Observed Ki on Adenosine receptor A3 (Homo sapiens) for `Cc1ccccc1CNC(=O)[C@H]1S[C@@H](n2cnc3c(NCc4cccc(I)c4)ncnc32)[C@H](O)[C@@H]1O` , please.
Reply: 31

Ask: Observed Ki on Adenosine receptor A3 (Homo sapiens) for `O=C(NC(c1ccccc1)c1ccccc1)[C@H]1S[C@@H](n2cnc3c(NCc4cccc(I)c4)ncnc32)[C@H](O)[C@@H]1O` , please.
Reply: 116

---

- experimental-system: UniProt P29274
- measurement-notes: Displacement of [3H]CGS21680 from human adenosine A2A receptor expressed in CHO cells at 1 uM
- Format: cell-based
reported-property: inhibition (%)
Give your result in % as a bare value.

Ask: Observed inhibition on UniProt P29274 for `CNc1ncnc2c1ncn2[C@@H]1S[C@H](C(=O)NC2CCCC2)[C@@H](O)[C@H]1O` , please.
Reply: 27

Ask: Observed inhibition on UniProt P29274 for `O=C(NC1CCCCC1)[C@H]1S[C@@H](n2cnc3c(NCc4cccc(I)c4)ncnc32)[C@H](O)[C@@H]1O` , please.
Reply: 35

Ask: Observed inhibition on UniProt P29274 for `O=C(NCCc1ccccc1)[C@H]1S[C@@H](n2cnc3c(NCc4cccc(I)c4)ncnc32)[C@H](O)[C@@H]1O` , please.
Reply: 38

Ask: Observed inhibition on UniProt P29274 for `CNc1ncnc2c1ncn2[C@@H]1S[C@H](C(=O)NCC2CC2)[C@@H](O)[C@H]1O` , please.
Reply: 45

Ask: Observed inhibition on UniProt P29274 for `CNc1ncnc2c1ncn2[C@@H]1S[C@H](C(=O)NCc2cccc(I)c2)[C@@H](O)[C@H]1O` , please.
Reply: 24

---

- experimental-system: Adenosine receptor A2a (Homo sapiens, UniProt P29274)
- Sequence (P29274 whole entry): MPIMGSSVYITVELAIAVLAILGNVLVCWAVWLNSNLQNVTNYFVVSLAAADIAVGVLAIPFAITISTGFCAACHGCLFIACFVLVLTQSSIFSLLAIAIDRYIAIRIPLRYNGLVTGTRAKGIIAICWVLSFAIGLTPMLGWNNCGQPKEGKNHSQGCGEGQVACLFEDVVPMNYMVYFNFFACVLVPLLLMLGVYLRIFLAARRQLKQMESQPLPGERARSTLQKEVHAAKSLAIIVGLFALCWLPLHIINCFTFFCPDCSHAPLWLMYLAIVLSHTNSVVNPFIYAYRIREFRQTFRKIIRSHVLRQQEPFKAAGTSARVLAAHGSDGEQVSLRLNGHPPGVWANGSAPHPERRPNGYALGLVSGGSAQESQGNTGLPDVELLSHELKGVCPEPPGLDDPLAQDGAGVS
- measurement-notes: Displacement of [3H]CGS21680 from human adenosine A2A receptor expressed in CHO cells at 1 uM
- Type: cell-based
Listed here: items and their measured inhibition.
Give your result in % as a bare value.

[[record]]
smiles_record = "O=C(NCc1cccc(Cl)c1)[C@H]1S[C@@H](n2cnc3c(NCc4cccc(I)c4)ncnc32)[C@H](O)[C@@H]1O"
experimental_system = "Adenosine receptor A2a (Homo sapiens, UniProt P29274)"
reading = 26

[[record]]
smiles_record = "Cc1cccc(CNC(=O)[C@H]2S[C@@H](n3cnc4c(NCc5cccc(I)c5)ncnc43)[C@H](O)[C@@H]2O)c1"
experimental_system = "Adenosine receptor A2a (Homo sapiens, UniProt P29274)"
reading = 37

[[record]]
smiles_record = "CCNC(=O)[C@H]1S[C@@H](n2cnc3c(NC)ncnc32)[C@H](O)[C@@H]1O"
experimental_system = "Adenosine receptor A2a (Homo sapiens, UniProt P29274)"
reading = 38

[[record]]
smiles_record = "Cc1ccccc1CNC(=O)[C@H]1S[C@@H](n2cnc3c(NCc4cccc(I)c4)ncnc32)[C@H](O)[C@@H]1O"
experimental_system = "Adenosine receptor A2a (Homo sapiens, UniProt P29274)"
reading = 31

[[record]]
smiles_record = "O=C(NCc1cccc(F)c1)[C@H]1S[C@@H](n2cnc3c(NCc4cccc(I)c4)ncnc32)[C@H](O)[C@@H]1O"
experimental_system = "Adenosine receptor A2a (Homo sapiens, UniProt P29274)"
reading = 44

[[record]]
smiles_record = "CNC(=O)[C@H]1S[C@@H](n2cnc3c(NC)ncnc32)[C@H](O)[C@@H]1O"
experimental_system = "Adenosine receptor A2a (Homo sapiens, UniProt P29274)"
reading = 20


Ask: I am curious: what inhibition value has been reported for `Cc1ccc(CNC(=O)[C@H]2S[C@@H](n3cnc4c(NCc5cccc(I)c5)ncnc43)[C@H](O)[C@@H]2O)cc1` ?
Reply: 28

Ask: I am curious: what inhibition value has been reported for `O=C(NCc1cccc2ccccc12)[C@H]1S[C@@H](n2cnc3c(NCc4cccc(I)c4)ncnc32)[C@H](O)[C@@H]1O` ?
Reply: 11

Ask: I am curious: what inhibition value has been reported for `COc1ccccc1CNC(=O)[C@H]1S[C@@H](n2cnc3c(NCc4cccc(I)c4)ncnc32)[C@H](O)[C@@H]1O` ?
Reply: 23

Ask: I am curious: what inhibition value has been reported for `CCOc1ccccc1CNC(=O)[C@H]1S[C@@H](n2cnc3c(NCc4cccc(I)c4)ncnc32)[C@H](O)[C@@H]1O` ?
Reply: 20
